PROTOCOL: clinical
DETAILS: female, human, plasma, oral
VALUE_TYPE: half-life (h)
Expressed in h, but write only the number.

Give recorded half-life. C#C[C@]1(O)CC[C@H]2[C@@H]3CCC4=CC(=O)CC[C@@H]4[C@H]3CC[C@@]21C [NE, norethindrone]
9.06

---

PROTOCOL: Steady-state plasma PK of NE and EE, NE/EE given alone or with trametinib (phase 1 DDI study)
DETAILS: female, human, plasma, oral, AUCtau, mean (SD), NE/EE alone, day 5, plasma
VALUE_TYPE: AUC (ng·h/mL)
Express your answer in ng·h/mL, writing the number without its unit.

Please list AUC recorded for the compound C#C[C@]1(O)CC[C@H]2[C@@H]3CCc4cc(O)ccc4[C@H]3CC[C@@]21C
1.16
